Ok so here's the combined literature set: IC50 for cGMP-dependent 3',5'-cyclic phosphodiesterase (Homo sapiens).
Number only, in µM; omit the unit.

{"Smiles Record": "COc1cccc(-c2nc(C)c3nnc4c(OC)cc(F)cc4n23)c1", "Unit Info": "µM", "Test Result": 2}

Enquiry: What measured IC50 goes with CC(C)Cn1c(=O)n(C)c(=O)c2cc3[nH]cnc3cc21 ?
Return: 89

Enquiry: I have this compound here, COCc1nc2c(ccc3c2c(=O)n(C)c(=O)n3CC(C)C)[nH]1 , and I need its recorded IC50.
Return: 66

Enquiry: What value of IC50 has been reported for the following compound? Cn1c(O)nc2nc3ccc(OCCCC(=O)N4CCCCC4)cc3cc21
Return: 60

Enquiry: // returns reported IC50 for input CC(C)Cn1c(=O)n(C)c(=O)c2c3ncn(Cc4ccccc4)c3ccc21
Return: 13

Enquiry: Look at this compound and give its reported IC50. COc1cc(F)cc2c1nnc1c(C)nc(-c3ccncc3C)n12
Return: 1.22

Enquiry: # input compound: CC(C)Cn1c(=O)n(C)c(=O)c2c3nc[nH]c3ccc21 ; wanted: its IC50
Return: 18

Enquiry: Would you mind telling me what IC50 value was observed for O=C(O)CCCCc1ccc2[nH]c3nc(O)nc-3cc2c1 ?
Return: 10

Enquiry: I would be grateful if you could share the reported IC50 for OCCCCOc1ccc2[nH]c3nc(O)nc-3cc2c1 .
Return: 20

Enquiry: Would you mind telling me what IC50 value was observed for CC(C)CCn1c(=O)c2nc[nH]c2n(CC(C)C)c1=O ?
Return: 17

Enquiry: For COc1cc(N2CCOCC2)cc2c1nnc1c(C)nc(-c3ccncc3C)n12 , what is its reported IC50?
Return: 0.00437

Enquiry: Which IC50 is reported for this compound? COc1cc(OC)c2nnc3c(C)nc(-c4ccccc4Cl)n3c2c1
Return: 0.0303

Enquiry: # input compound: COc1ccc(C2=Nc3c(C(C)(C)C)nn(CCO)c3C(=O)NC2)cc1-c1cnn(C)c1 ; wanted: its IC50
Return: 0.0068

Enquiry: Form field: reported IC50 of CN(C(=O)CCCOc1ccc2nc3nc(O)n(C)c3cc2c1)C1CCCCCC1
Return: 7

Enquiry: Which IC50 value belongs to COc1cccc(CCn2cnc3c(=O)[nH]c(Cc4ccccc4)nc32)c1 ?
Return: 11
